# tested-on: T1, RB69 DNA polymerase gp43 Pol+ Exo+ (wild type) (bacteriophage RB69, UniProt Q38087 1-903)
# T1 sequence: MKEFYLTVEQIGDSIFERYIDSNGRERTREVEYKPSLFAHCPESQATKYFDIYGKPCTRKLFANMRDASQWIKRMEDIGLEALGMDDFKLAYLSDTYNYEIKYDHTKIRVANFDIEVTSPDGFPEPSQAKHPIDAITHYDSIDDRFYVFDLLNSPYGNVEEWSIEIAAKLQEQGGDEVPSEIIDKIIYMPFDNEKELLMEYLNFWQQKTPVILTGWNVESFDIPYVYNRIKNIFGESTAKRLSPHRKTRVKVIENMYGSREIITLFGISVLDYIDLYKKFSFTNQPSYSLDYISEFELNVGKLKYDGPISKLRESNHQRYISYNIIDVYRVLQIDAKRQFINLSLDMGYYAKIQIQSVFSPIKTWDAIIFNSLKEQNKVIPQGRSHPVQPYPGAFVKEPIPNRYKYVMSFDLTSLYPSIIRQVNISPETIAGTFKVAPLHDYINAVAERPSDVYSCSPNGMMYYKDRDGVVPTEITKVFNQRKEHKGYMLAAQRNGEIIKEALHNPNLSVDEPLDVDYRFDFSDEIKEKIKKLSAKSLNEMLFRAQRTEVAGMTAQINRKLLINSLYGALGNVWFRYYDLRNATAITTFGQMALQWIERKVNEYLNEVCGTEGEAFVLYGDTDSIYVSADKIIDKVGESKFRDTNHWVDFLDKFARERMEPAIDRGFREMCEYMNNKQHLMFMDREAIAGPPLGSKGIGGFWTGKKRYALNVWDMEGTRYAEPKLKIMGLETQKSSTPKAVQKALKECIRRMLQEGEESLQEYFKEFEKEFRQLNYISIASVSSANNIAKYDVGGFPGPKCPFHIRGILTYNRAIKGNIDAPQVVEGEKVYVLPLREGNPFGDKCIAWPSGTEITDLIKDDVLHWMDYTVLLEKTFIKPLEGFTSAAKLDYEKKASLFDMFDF
# run-description: EMSA
readout: pKd
pKd is a log-scale quantity: -log10 of the concentration expressed in molar.

binder	pKd
normal dsDNA primer/template 20/35-mer (dsDNA) DNA 1: TTTGATGTATTATCAATTGT DNA 2: TGCCTTCGTAATCTTACAATTGATAATACATCAAA	8.16

# input binder: mismatched dsDNA primer/template 20/30-mer, terminal T·G (dsDNA) DNA 1: ATGTGCTGCAAGGCGATTAG DNA 2: GTTACCCAACTTAATCGCCTTGCAGCACAT ; wanted: its pKd
7.42
